Entry source: patent US20230210831A1

# key: entry, value: Number of revertant colonies
# System: Salmonella typhimurium TA1537
# assay.explanation: Ames test (reverse mutation test), TA1537
# Type: cell-based
# study.conditions: TA1537, +S9 mix, 556 µg/plate
# Description: The solvent used herein was dimethyl sulfoxide (DMSO, 100 µL/plate). The mixtures were preincubated at 37° C. for 20 minutes while shaking. […] Two plates per treatment were used.
Reply with just the number.

These recorded examples may help you get a feel for the data.
[[record]]
compound = "CC(C)(C)Oc1cccc(-c2cc(N)nn2-c2ccccc2)c1 [Metabolite C]"
system_under_test = "Salmonella typhimurium TA1537"
result_number = 4

[[record]]
compound = "Nc1cc(-c2cc(F)cc(OC(F)(F)F)c2)n(-c2cncc(C(F)(F)F)c2)n1 [Metabolite 5]"
system_under_test = "Salmonella typhimurium TA1537"
result_number = 8

[[record]]
compound = "CC(C)(OCc1cc(F)cc(-c2cc(N)nn2-c2ccc(F)cc2)c1)C(F)(F)F [Metabolite D]"
system_under_test = "Salmonella typhimurium TA1537"
result_number = 15


Let me know recorded Number of revertant colonies for CC(C)(C)Oc1cc(F)cc(-c2cc(N)nn2C(F)(F)F)c1 [Metabolite 1] , thanks.
0

====

# Test system: Salmonella typhimurium TA98
# assay.explanation: Ames test (reverse mutation test), TA98
# Assay type: cell-based
# study.conditions: S9 Mix -; dose 21 µg/plate
endpoint.label: Number of revertant colonies TA98
Reply with just the number.

[[record]]
compound = "CC(C)(OCc1cc(F)cc(-c2cc(N)nn2-c2ccc(F)cc2)c1)C(F)(F)F [Metabolite D]"
endpoint_label = "Number of revertant colonies TA98"
result_number = 23

[[record]]
compound = "Nc1cc(-c2cccc(OCC(F)(F)F)c2)n(-c2ccc(F)cc2)n1 [Metabolite E]"
endpoint_label = "Number of revertant colonies TA98"
result_number = 28

[[record]]
compound = "Nc1cc(-c2cccc(OC(F)(F)F)c2)n(-c2cccc(F)c2)n1 [Metabolite G]"
endpoint_label = "Number of revertant colonies TA98"
result_number = 31

[[record]]
compound = "Cc1ccc(-n2nc(N)cc2-c2cccc(OCC(F)(F)F)c2)cc1 [Metabolite F]"
endpoint_label = "Number of revertant colonies TA98"
result_number = 21


Continue with the compound presented below.
Let me know recorded Number of revertant colonies TA98 for Cc1cccc(-n2nc(N)cc2-c2cccc(OC(F)(F)F)c2)c1 [Metabolite H] , thanks.
18

====

# key: entry, value: Number of revertant colonies TA100
# System: Salmonella typhimurium TA100
# assay.explanation: Ames test (reverse mutation test), TA100
# Type: cell-based
# study.conditions: S9 Mix -; dose 185 µg/plate
# Procedure: The solvent used herein was dimethyl sulfoxide (DMSO, 100 µL/plate). The mixtures were preincubated at 37° C. for 20 minutes while shaking. […] Two plates per treatment were used.

These recorded examples may help you get a feel for the data.
[[record]]
compound = "CC(C)(OCc1cc(F)cc(-c2cc(N)nn2-c2ccc(F)cc2)c1)C(F)(F)F [Metabolite D]"
result = 85

[[record]]
compound = "Cc1cccc(-n2nc(N)cc2-c2cccc(OC(F)(F)F)c2)c1 [Metabolite H]"
result = 103


Let me know recorded Number of revertant colonies TA100 for Nc1cc(-c2cccc(OCC(F)(F)F)c2)n(-c2ccc(F)cc2)n1 [Metabolite E] , thanks.
75

Let me know recorded Number of revertant colonies TA100 for Cc1ccc(-n2nc(N)cc2-c2cccc(OCC(F)(F)F)c2)cc1 [Metabolite F] , thanks.
93

Let me know recorded Number of revertant colonies TA100 for Nc1cc(-c2cccc(OC(F)(F)F)c2)n(-c2cccc(F)c2)n1 [Metabolite G] , thanks.
80

====

# Tested on: Salmonella typhimurium TA100
# assay.explanation: Ames test (reverse mutation test), TA100
# Format: cell-based
# study.conditions: S9 Mix +; dose 5000 µg/plate
endpoint.label: Number of revertant colonies TA100
Reply with just the number.

[[record]]
compound = "Cc1ccc(-n2nc(N)cc2-c2cccc(OCC(F)(F)F)c2)cc1 [Metabolite F]"
system_under_test = "Salmonella typhimurium TA100"
endpoint_label = "Number of revertant colonies TA100"
result_number = 1160

[[record]]
compound = "Cc1cccc(-n2nc(N)cc2-c2cccc(OC(F)(F)F)c2)c1 [Metabolite H]"
system_under_test = "Salmonella typhimurium TA100"
endpoint_label = "Number of revertant colonies TA100"
result_number = 75

[[record]]
compound = "Nc1cc(-c2cccc(OCC(F)(F)F)c2)n(-c2ccc(F)cc2)n1 [Metabolite E]"
system_under_test = "Salmonella typhimurium TA100"
endpoint_label = "Number of revertant colonies TA100"
result_number = 157


Let me know recorded Number of revertant colonies TA100 for Nc1cc(-c2cccc(OC(F)(F)F)c2)n(-c2cccc(F)c2)n1 [Metabolite G] , thanks.
226

====

# Tested on: Salmonella typhimurium TA98
# assay.explanation: Ames test (reverse mutation test), TA98
# Type: cell-based
# study.conditions: S9 Mix +; dose 21 µg/plate
endpoint.label: Number of revertant colonies TA98

Let me know recorded Number of revertant colonies TA98 for Cc1ccc(-n2nc(N)cc2-c2cccc(OCC(F)(F)F)c2)cc1 [Metabolite F] , thanks.
522

Let me know recorded Number of revertant colonies TA98 for Nc1cc(-c2cccc(OCC(F)(F)F)c2)n(-c2ccc(F)cc2)n1 [Metabolite E] , thanks.
1001

Let me know recorded Number of revertant colonies TA98 for Nc1cc(-c2cccc(OC(F)(F)F)c2)n(-c2cccc(F)c2)n1 [Metabolite G] , thanks.
76

Let me know recorded Number of revertant colonies TA98 for Cc1cccc(-n2nc(N)cc2-c2cccc(OC(F)(F)F)c2)c1 [Metabolite H] , thanks.
152

====

# Tested on: Salmonella typhimurium TA1537
# assay.explanation: Ames test (reverse mutation test), TA1537
# Assay type: cell-based
# study.conditions: S9 Mix -; dose 62 µg/plate
# key: entry, value: Number of revertant colonies TA1537

Report its Number of revertant colonies TA1537 with Salmonella typhimurium TA1537 as the test system: CC(C)(OCc1cc(F)cc(-c2cc(N)nn2-c2ccc(F)cc2)c1)C(F)(F)F [Metabolite D]
7

Report its Number of revertant colonies TA1537 with Salmonella typhimurium TA1537 as the test system: Nc1cc(-c2cccc(OC(F)(F)F)c2)n(-c2cccc(F)c2)n1 [Metabolite G]
7

Report its Number of revertant colonies TA1537 with Salmonella typhimurium TA1537 as the test system: Nc1cc(-c2cccc(OCC(F)(F)F)c2)n(-c2ccc(F)cc2)n1 [Metabolite E]
11

Report its Number of revertant colonies TA1537 with Salmonella typhimurium TA1537 as the test system: Cc1cccc(-n2nc(N)cc2-c2cccc(OC(F)(F)F)c2)c1 [Metabolite H]
9

Report its Number of revertant colonies TA1537 with Salmonella typhimurium TA1537 as the test system: Cc1ccc(-n2nc(N)cc2-c2cccc(OCC(F)(F)F)c2)cc1 [Metabolite F]
10
